Test system: HEK-293T
protocol_details: Incucyte cell viability with HEK293T; also: unitless GR value; below 1 slowed growth and below 0 cell loss
Assay type: toxicity, cell-based
recorded_conditions: human, 6 h, 10 µM, compound concentration 10 uM, replicate number 2, timepoint 6 hours
Each entry gets false if its Growth Rate stays under 0.4, and true if its Growth Rate is 0.4 or above.

line_notation | answer_label
O=C(NC[C@@H]1[C@H]2CN(C(=O)OCc3cc(C(F)(F)F)cc(C(F)(F)F)c3)C[C@@H]12)c1ccc2[nH]nnc2c1 | true
CCCCCCCCc1ccc(CC[C@](N)(CO)COP(=O)(O)O)cc1 | true
CC(C)n1cc(-c2ccc(N3CCN(C)CC3)c(NC(=O)c3ccc(-c4ccncc4)o3)c2)cn1 | false
CCOC(=O)c1c(/C(C#N)=C\N)c2ccc(Cl)c(Cl)c2n1C | true
COc1cc(/C=C/C(=O)NCCn2c(C)cc3ccccc32)cc(OC)c1OC | false
C[C@@](Cc1c[nH]c2ccccc12)(NC(=O)Nc1ccc([N+](=O)[O-])cc1)C(=O)NCC1(c2ccccn2)CCCCC1 | false
CN(C)CCn1cc(S(=O)(=O)c2cccc(F)c2)c2cccnc21.Cl.Cl | true

* * *

Test system: U2OS
protocol_details: Incucyte cell viability with U2OS; also: unitless GR value; below 1 slowed growth and below 0 cell loss
Assay type: toxicity, cell-based
recorded_conditions: human, 24 h, 10 µM, compound concentration 10 uM, replicate number 1, timepoint 24 hours
// reported Growth Rate per item
experimental_readout: Growth Rate

compound | reading
Cc1cc(Nc2ncc(Cl)c(Nc3ccccc3S(=O)(=O)C(C)C)n2)c(OC(C)C)cc1C1CCNCC1 | -0.58
CCc1nnc(NS(=O)(=O)c2ccc(NC(=S)NC(=O)/C=C/c3ccc(F)cc3)cc2)s1 | 0.86
CC(C)Oc1ccc(Cc2ccc(NC3=NCCN3)cc2)cc1 | 0.84
OCc1cc(C(O)CNCCCCCCOCCCCc2ccccc2)ccc1O (centres undefined) | 0.95
CC[C@H](Nc1ncnc2[nH]cnc12)c1nc2cccc(F)c2c(=O)n1-c1ccccc1 | 0.59
CC(C)CC(=O)Nc1cncc(-c2ccc3[nH]nc(-c4nc5c(-c6cccc(F)c6)cncc5[nH]4)c3c2)c1 | 0.71
CS(=O)(=O)N1CCCC(NC(=O)[C@H](CCC2CCCCC2)NC(=O)c2ccc(CNc3ncnc4c3nnn4-c3ccccc3)cc2)C1 (some centres undefined) | 0.6
CCC(=O)N1CC[C@H](Nc2ncnc3c2CN(c2cnc(OC)c(C(F)(F)F)c2)CC3)C1 | 0.81
O=C1[C@H](Cc2ccc(O)cc2)N2C(=O)CCN(C(=O)NCc3ccccc3)[C@H]2CN1Cc1cccc2ccccc12 | 0.3
Br.Br.N=C(N)NCCSC(=N)N | 0.37
CCCCC[C@H](O)/C=C/[C@H]1[C@H](O)CC(=O)[C@@H]1CCCCCCC(=O)O | 0.85
OC[C@H]1O[C@@H](n2cnc3c(NC4CCCC4)ncnc32)[C@H](O)[C@@H]1O | 0.71
C[C@@](Cc1c[nH]c2ccccc12)(NC(=O)Nc1ccc([N+](=O)[O-])cc1)C(=O)NCC1(c2ccccn2)CCCCC1 | -0.26
C=CCNc1ncnc2ccc(Br)cc12 | 0.97
CC1(COc2ccc3c(c2)ncn3-c2ccc3cccc(N4CCC(N)CC4)c3n2)COC1 | 0.54
O=C1NCc2ccc3c(-c4cccc(Cl)c4)c[nH]c3c21 | -0.13
CCCCOCCOc1nc(-c2ccc(C(=O)O)c(F)c2)sc1C | 0.94
Cc1ccccc1C#Cc1ccc(CCC(=O)O)cc1 | 0.77
CSc1ccccc1N1CCN(CCCCCC(=O)NC2CCCc3ccccc32)CC1.Cl (centres undefined) | 0.76
O=C(N[C@@H]1CC[C@@H](c2cccc(F)c2F)CN(CC(F)(F)F)C1=O)N1CCC(n2c(=O)[nH]c3ncccc32)CC1 | 0.86
CC(=O)c1ccc2c(c1)[C@@H]1C=CC[C@@H]1[C@H](c1cc3c(cc1Br)OCO3)N2 | -0.17
CCC(=O)OCC(=O)[C@@]1(OC(=O)CC)[C@@H](C)C[C@H]2[C@@H]3CCC4=CC(=O)C=C[C@]4(C)[C@@]3(Cl)[C@@H](O)C[C@@]21C [BECLOMETHASONE DIPROPIONATE] | 0.78
CC1(C)[C@H]2C[C@H](C/C=C\CCCC(=O)O)[C@@H](NC(=O)c3csc4ccc(O)cc34)[C@@H]1C2 | 0.66
CN[C@@H]1C[C@H]2O[C@@](C)([C@@H]1OC)n1c3ccccc3c3c4c(c5c6ccccc6n2c5c31)C(=O)NC4 | 0.65
CC(C)NCC(O)COc1cccc2[nH]ccc12 (centres undefined) | 0.7
O=C1c2c(Br)c(Br)c(Br)c(Br)c2C(=O)N1c1ncc[nH]1 | 0.98
N#Cc1c(N)nc(SCc2csc(-c3ccc(Cl)cc3)n2)c(C#N)c1-c1ccc(OCCO)cc1 | 0.79
Cc1sc2c(c1C)C(c1ccc(Cl)cc1)=N[C@@H](CC(=O)NCCCCCCCCNC(=O)COc1cccc3c1C(=O)N(C1CCC(=O)NC1=O)C3=O)c1nnc(C)n1-2 (some centres undefined) | 0.4
CN(C)CCN(Cc1ccc(-c2ccc(CNCCc3ccccc3)cc2)cc1)C(=O)CCC1CCCC1.Cl.Cl | -0.86
CC(C)c1cc(Oc2c(Cl)cc(-n3nc(C#N)c(=O)[nH]c3=O)cc2Cl)n[nH]c1=O | 0.99
COc1ccc(C(=O)N2CCN(C(=O)/C=C/c3ccc(Br)cc3)CC2)cc1 | 0.88
Cc1cc(C)cc([C@H]2c3cc(C)ccc3NC(=O)CN2C(=O)c2ccc(Br)s2)c1 | 0.67
Cc1noc(C)c1-c1cnc2c(-c3ccc(C(=O)O)cc3)cn([C@@H](C)c3ccccn3)c2c1 | 0.96
C[C@@H](c1ccc(F)cc1)n1nnc2cnc3ccc(-c4ccc5ocnc5c4)cc3c21 | 0.51

* * *

Test system: HEK-293T
protocol_details: Incucyte cell viability with HEK293T; also: unitless GR value; below 1 slowed growth and below 0 cell loss
Type: toxicity, cell-based
recorded_conditions: human, 24 h, 10 µM, compound concentration 10 uM, replicate number 1, timepoint 24 hours

line_notation | Growth Rate
O=C(O)c1cccc(/C=C2/C[C@@H]3[C@@H](/C=C/[C@H](O)C4CCCCC4)[C@H](O)C[C@@H]3O2)c1 | 0.9
CCN1/C(=C/C(C)=O)Sc2ccc(OC(C)=O)cc21 | 0.49
COc1ccc2cc(S(=O)(=O)N[C@H](CC(=O)N[C@H](Cc3ccc(CN4[C@H](C)CCC[C@@H]4C)cc3)C(=O)N(C)C(C)C)c3ccc4c(c3)OCO4)ccc2c1.Cl | 0.01
CCc1nnc(NS(=O)(=O)c2ccc(NC(=S)NC(=O)/C=C/c3ccc(F)cc3)cc2)s1 | 0.67

* * *

Test system: HEK-293T
protocol_details: Incucyte cell viability with HEK293T; also: unitless GR value; below 1 slowed growth and below 0 cell loss
Format: toxicity, cell-based
recorded_conditions: human, 0 h, 10 µM, compound concentration 10 uM, replicate number 2, timepoint 0 hours
Where a SMILES comes first, the peptide text is derived from it. [ ]: non-standard residue; d: D form.
Records here are stratified by Growth Rate; strata: I (below 0.3), II (0.3 to below 0.7), III (0.7 or more)

compound | answer_label
COc1ccc2nc3ccc(OC)cc3c(SCCCN)c2c1.Cl | I
C[C@H]1[C@H](OC(=O)CCC(=O)O)O[C@@H]2O[C@@]3(C)CC[C@H]4[C@H](C)CC[C@@H]1[C@@]24OO3 [ARTESUNATE] | II
CC(C)C[C@@H]1NC(=O)[C@@H](C(C)C)NC(=O)[C@@H]2CCCN2C(=O)[C@@H](CC(=O)O)NC(=O)[C@@H](Cc2c[nH]c3ccccc23)NC1=O [BQ-123] (cyclo(L[dW][dD]P[dV])) | III
CC(C)CCC[C@@H](C)[C@H]1CC[C@H]2[C@@H]3[C@H](O)C=C4C[C@@H](O)CC[C@]4(C)[C@H]3CC[C@]12C | I
CSc1cc2c(cc1C(F)(F)F)N(C(=O)Nc1cccnc1)CC2 | I
O=C1Nc2ccc(I)cc2/C1=C/c1cc(Br)c(O)c(Br)c1 | I
Nc1nccc(-c2ccn3c(N)nccc23)n1 | I
C=CCNc1ncnc2ccc(Br)cc12 | II
NCCc1c[nH]c2ccc(C(N)=O)cc12.O=C(O)/C=C\C(=O)O | I
COc1cc(OC)cc(C(=O)NNC(=O)Nc2cccc3ccccc23)c1 | II
Cc1ccc(C(C)(O)c2nc3ccccc3s2)c(C)c1 (centres undefined) | III
O=C(O)c1n[nH]c2c1C[C@H]1C[C@@H]21 | III
Cc1ccccc1C#Cc1ccc(CCC(=O)O)cc1 | II
CC(C)N(CCCCOCC(=O)NS(C)(=O)=O)c1cnc(-c2ccccc2)c(-c2ccccc2)n1 | III
O=C(Nc1cc(-c2cn[nH]c2)ccc1N1CCOCC1)c1ccc(-c2ccc3ncccc3c2)o1 | I
N#Cc1c(N)nc(SCc2csc(-c3ccc(Cl)cc3)n2)c(C#N)c1-c1ccc(OCCO)cc1 | II
CC1(C)[C@H]2C[C@H](C/C=C\CCCC(=O)O)[C@@H](NC(=O)c3csc4ccc(O)cc34)[C@@H]1C2 | II

Recorded values, source ChEMBL document CHEMBL5058564.
